B1: library; numbered along this chain (parent)
chain: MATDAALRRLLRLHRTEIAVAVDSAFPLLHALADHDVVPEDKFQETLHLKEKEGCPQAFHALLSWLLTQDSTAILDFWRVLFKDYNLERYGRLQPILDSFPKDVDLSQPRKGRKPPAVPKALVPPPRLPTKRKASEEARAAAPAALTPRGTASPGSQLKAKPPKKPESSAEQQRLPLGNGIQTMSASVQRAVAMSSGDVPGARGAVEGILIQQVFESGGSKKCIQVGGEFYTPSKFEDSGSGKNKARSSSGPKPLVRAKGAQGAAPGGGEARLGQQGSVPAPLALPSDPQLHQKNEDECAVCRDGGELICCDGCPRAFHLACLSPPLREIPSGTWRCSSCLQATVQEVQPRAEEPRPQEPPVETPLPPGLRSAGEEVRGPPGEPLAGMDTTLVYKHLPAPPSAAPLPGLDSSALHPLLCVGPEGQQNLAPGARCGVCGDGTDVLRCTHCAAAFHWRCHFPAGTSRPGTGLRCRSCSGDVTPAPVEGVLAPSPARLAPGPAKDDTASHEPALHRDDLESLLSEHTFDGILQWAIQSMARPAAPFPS

- Variants of: B1
- protocol-notes: AIRE transcriptional activation functional score (insulin promoter-GFP; nonsense median 0, synonymous median 1) (normalised score); higher = higher AIRE activity (more reporter activation)
- settings: with insulin promoter-GFP reporter in HEK293
readout-kind: AIRE transcriptional activation functional score
Number, no unit, nothing else.

### Prompt Report measured AIRE transcriptional activation functional score; entry is `S250M`
### Response 1.68

### Prompt Report measured AIRE transcriptional activation functional score; entry is `A33R`
### Response -0.705

### Prompt Report measured AIRE transcriptional activation functional score; entry is `Q172M`
### Response 2.4

### Prompt Report measured AIRE transcriptional activation functional score; entry is `L414F`
### Response 1.41

### Prompt Report measured AIRE transcriptional activation functional score; entry is `A271K`
### Response 1.1

### Prompt Report measured AIRE transcriptional activation functional score; entry is `R371T`
### Response 0.753

### Prompt Report measured AIRE transcriptional activation functional score; entry is `P27C`
### Response -0.00711

### Prompt Report measured AIRE transcriptional activation functional score; entry is `H458G`
### Response 0.842

### Prompt Report measured AIRE transcriptional activation functional score; entry is `G268M`
### Response 1.12

### Prompt Report measured AIRE transcriptional activation functional score; entry is `K111R`
### Response 0.805

### Prompt Report measured AIRE transcriptional activation functional score; entry is `V279D`
### Response -0.0439

### Prompt Report measured AIRE transcriptional activation functional score; entry is `L418E`
### Response 0.507

### Prompt Report measured AIRE transcriptional activation functional score; entry is `P56C`
### Response -0.173

### Prompt Report measured AIRE transcriptional activation functional score; entry is `M388I`
### Response 0.924

### Prompt Report measured AIRE transcriptional activation functional score; entry is `N295Y`
### Response 1.08

### Prompt Report measured AIRE transcriptional activation functional score; entry is `L128W`
### Response 1.39

### Prompt Report measured AIRE transcriptional activation functional score; entry is `P266N`
### Response 0.956

### Prompt Report measured AIRE transcriptional activation functional score; entry is `P162S`
### Response 0.476

### Prompt Report measured AIRE transcriptional activation functional score; entry is `R149A`
### Response 1.19

### Prompt Report measured AIRE transcriptional activation functional score; entry is `D41S`
### Response 0.72

### Prompt Report measured AIRE transcriptional activation functional score; entry is `N427D`
### Response 1.07

### Prompt Report measured AIRE transcriptional activation functional score; entry is `A191V`
### Response 0.157

### Prompt Report measured AIRE transcriptional activation functional score; entry is `A5Y`
### Response 0.397

### Prompt Report measured AIRE transcriptional activation functional score; entry is `E485D`
### Response 0.981

### Prompt Report measured AIRE transcriptional activation functional score; entry is `Q213G`
### Response 0.977

### Prompt Report measured AIRE transcriptional activation functional score; entry is `S169D`
### Response 1.22

### Prompt Report measured AIRE transcriptional activation functional score; entry is `F459L`
### Response 0.464

### Prompt Report measured AIRE transcriptional activation functional score; entry is `K221S`
### Response 0.464

### Prompt Report measured AIRE transcriptional activation functional score; entry is `A452G`
### Response 0.775

### Prompt Report measured AIRE transcriptional activation functional score; entry is `W78H`
### Response 0.363

### Prompt Report measured AIRE transcriptional activation functional score; entry is `P381T`
### Response 0.929

### Prompt Report measured AIRE transcriptional activation functional score; entry is `D70T`
### Response 0.428

### Prompt Report measured AIRE transcriptional activation functional score; entry is `R328Q`
### Response 0.659

### Prompt Report measured AIRE transcriptional activation functional score; entry is `F236N`
### Response 1.68

### Prompt Report measured AIRE transcriptional activation functional score; entry is `A489R`
### Response 0.51

### Prompt Report measured AIRE transcriptional activation functional score; entry is `S249R`
### Response -0.21

### Prompt Report measured AIRE transcriptional activation functional score; entry is `L13E`
### Response 0.79

### Prompt Report measured AIRE transcriptional activation functional score; entry is `Q293Y`
### Response 0.958

### Prompt Report measured AIRE transcriptional activation functional score; entry is `C314I`
### Response 1.08

### Prompt Report measured AIRE transcriptional activation functional score; entry is `R15H`
### Response -0.146

### Prompt Report measured AIRE transcriptional activation functional score; entry is `S196L`
### Response 0.512

### Prompt Report measured AIRE transcriptional activation functional score; entry is `K245P`
### Response 1.07

### Prompt Report measured AIRE transcriptional activation functional score; entry is `L49F`
### Response 0.262

### Prompt Report measured AIRE transcriptional activation functional score; entry is `H14A`
### Response -0.0434

### Prompt Report measured AIRE transcriptional activation functional score; entry is `C419H`
### Response 0.558

### Prompt Report measured AIRE transcriptional activation functional score; entry is `L87N`
### Response 0.531

### Prompt Report measured AIRE transcriptional activation functional score; entry is `K221Q`
### Response 0.621

### Prompt Report measured AIRE transcriptional activation functional score; entry is `S412E`
### Response 0.743

### Prompt Report measured AIRE transcriptional activation functional score; entry is `T441N`
### Response 0.751

### Prompt Report measured AIRE transcriptional activation functional score; entry is `M388E`
### Response 0.756

### Prompt Report measured AIRE transcriptional activation functional score; entry is `G274K`
### Response 1.24

### Prompt Report measured AIRE transcriptional activation functional score; entry is `P39A`
### Response -0.568

### Prompt Report measured AIRE transcriptional activation functional score; entry is `P143Y`
### Response 1.39

### Prompt Report measured AIRE transcriptional activation functional score; entry is `D502V`
### Response 0.937

### Prompt Report measured AIRE transcriptional activation functional score; entry is `K395M`
### Response 2.5

### Prompt Report measured AIRE transcriptional activation functional score; entry is `P490L`
### Response 1.12

### Prompt Report measured AIRE transcriptional activation functional score; entry is `R12K`
### Response 1.84

### Prompt Report measured AIRE transcriptional activation functional score; entry is `D4V`
### Response 0.202

### Prompt Report measured AIRE transcriptional activation functional score; entry is `K243E`
### Response 0.511

### Prompt Report measured AIRE transcriptional activation functional score; entry is `P542Q`
### Response 0.942

### Prompt Report measured AIRE transcriptional activation functional score; entry is `R445K`
### Response 1.17

### Prompt Report measured AIRE transcriptional activation functional score; entry is `D442K`
### Response 0.322

### Prompt Report measured AIRE transcriptional activation functional score; entry is `R456T`
### Response 1.32

### Prompt Report measured AIRE transcriptional activation functional score; entry is `V484F`
### Response 0.8

### Prompt Report measured AIRE transcriptional activation functional score; entry is `D297A`
### Response 0.963

### Prompt Report measured AIRE transcriptional activation functional score; entry is `L81A`
### Response -0.165

### Prompt Report measured AIRE transcriptional activation functional score; entry is `K131N`
### Response 0.0453

### Prompt Report measured AIRE transcriptional activation functional score; entry is `P56T`
### Response 0.544

### Prompt Report measured AIRE transcriptional activation functional score; entry is `S156H`
### Response 0.981

### Prompt Report measured AIRE transcriptional activation functional score; entry is `A284G`
### Response 1.03

### Prompt Report measured AIRE transcriptional activation functional score; entry is `V192Q`
### Response 0.811

### Prompt Report measured AIRE transcriptional activation functional score; entry is `G387P`
### Response 0.291

### Prompt Report measured AIRE transcriptional activation functional score; entry is `L62M`
### Response 0.558

### Prompt Report measured AIRE transcriptional activation functional score; entry is `T364V`
### Response 0.952

### Prompt Report measured AIRE transcriptional activation functional score; entry is `S217D`
### Response 1.57

### Prompt Report measured AIRE transcriptional activation functional score; entry is `K114W`
### Response 1.32
